Reported values of ELISA Signal-blank (100 nM Fab) for individual entries
system_under_test: T1, Recombinant Human DLL4 (delta-like protein 4) (human, UniProt Q9NR61 27-524)
T1 construct: also called rHuman DLL4; Delta-like 4
test_name: ELISA, DLL4 coated on plate, Fab at 100 nM
Number only, no unit.

Input line: Report ELISA Signal-blank (100 nM Fab) for Fab VH5-51_IGHD5-18*01>3_IGHJ4*01 G100K/G104T G24T/S28R/G35V & V3-4_IGLJ1*01 V91L/S96P T53Q (Fab, V domains shown, Fab expressed in E. coli; heavy chain vector adds CH1 with His6 and Flag tags, light chain vector adds lambda CL; also called H:KT TRV & L:LP T53Q) VH: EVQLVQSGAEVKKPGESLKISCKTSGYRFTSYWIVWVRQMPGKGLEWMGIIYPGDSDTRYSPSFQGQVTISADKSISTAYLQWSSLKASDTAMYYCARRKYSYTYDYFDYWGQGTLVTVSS VL: QTVVTQEPSFSVSPGGTVTLTCGLSSGSVSTSYYPSWYQQTPGQAPRTLIYSQNTRSSGVPDRFSGSILGNKAALTITGAQADDESDYYCLLYMGPGISYVFGTGTKVTVL
Output line: 0.11

Input line: Report ELISA Signal-blank (100 nM Fab) for Fab VH5-51_IGHD5-18*01>3_IGHJ4*01 G100K/G104T G24T/S28R/G35V & V3-4_IGLJ1*01 V91L/S96P T53F (Fab, V domains shown, Fab expressed in E. coli; heavy chain vector adds CH1 with His6 and Flag tags, light chain vector adds lambda CL; also called H:KT TRV & L:LP T53F) VH: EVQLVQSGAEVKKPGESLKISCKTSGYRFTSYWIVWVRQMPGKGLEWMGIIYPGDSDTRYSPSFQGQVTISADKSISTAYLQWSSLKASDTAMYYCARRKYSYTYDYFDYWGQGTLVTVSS VL: QTVVTQEPSFSVSPGGTVTLTCGLSSGSVSTSYYPSWYQQTPGQAPRTLIYSFNTRSSGVPDRFSGSILGNKAALTITGAQADDESDYYCLLYMGPGISYVFGTGTKVTVL
Output line: 0.15

Note: attention shifts to another entry.
Input line: Report ELISA Signal-blank (100 nM Fab) for Fab VH5-51_IGHD5-18*01>3_IGHJ4*01 G100K/G104T G24T/S28R/G35V & V3-4_IGLJ1*01 V91L/S96P S52P (Fab, V domains shown, Fab expressed in E. coli; heavy chain vector adds CH1 with His6 and Flag tags, light chain vector adds lambda CL; also called H:KT TRV & L:LP S52P) VH: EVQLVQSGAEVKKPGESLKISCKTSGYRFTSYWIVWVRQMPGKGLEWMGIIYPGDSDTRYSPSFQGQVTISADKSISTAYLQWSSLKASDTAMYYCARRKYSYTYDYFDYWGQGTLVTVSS VL: QTVVTQEPSFSVSPGGTVTLTCGLSSGSVSTSYYPSWYQQTPGQAPRTLIYPTNTRSSGVPDRFSGSILGNKAALTITGAQADDESDYYCLLYMGPGISYVFGTGTKVTVL
Output line: 0.32
